src = patent US10479780B2

TESTED_SYSTEM: human Yes1 enzyme (Homo sapiens)
Construct: made in house
Sequence (P07947 whole entry): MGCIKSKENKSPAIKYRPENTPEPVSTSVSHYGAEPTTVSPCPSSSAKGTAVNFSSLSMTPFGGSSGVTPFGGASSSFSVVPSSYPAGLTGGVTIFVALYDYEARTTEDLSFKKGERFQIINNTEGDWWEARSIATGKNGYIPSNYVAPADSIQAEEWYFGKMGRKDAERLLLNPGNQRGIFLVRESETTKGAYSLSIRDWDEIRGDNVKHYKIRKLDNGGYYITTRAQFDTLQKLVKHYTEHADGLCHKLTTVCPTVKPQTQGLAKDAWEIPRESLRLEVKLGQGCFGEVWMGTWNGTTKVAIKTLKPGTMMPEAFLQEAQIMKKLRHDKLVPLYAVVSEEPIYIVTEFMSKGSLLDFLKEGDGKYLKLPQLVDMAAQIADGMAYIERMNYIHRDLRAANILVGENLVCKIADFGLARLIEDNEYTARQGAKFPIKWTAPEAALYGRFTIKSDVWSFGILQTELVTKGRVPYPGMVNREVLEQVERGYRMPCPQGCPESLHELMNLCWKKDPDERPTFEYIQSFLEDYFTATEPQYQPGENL
MEASUREMENT_PROTOCOL: Yes1 enzyme inhibitory activity (time-resolved fluorometry, biotinylated peptide phosphorylation)
Format: biochemical
TEST_SETTINGS: biotinylated peptide phosphorylation, read-out: YES_IC50
Mark T for IC50 under 6 nM, F if at or over.

[[record]]
given_smiles = "Cc1cnc(F)c(S(=O)(=O)Nc2cc3[nH]c(C(=O)c4cnn(-c5cnc(Oc6c(F)cccc6F)cc5C)c4N)cc3cc2F)c1"
tested_system = "human Yes1 enzyme (Homo sapiens)"
class_name = "F"

[[record]]
given_smiles = "Cc1cc2cc(C(=O)c3cnn(-c4cnc(Oc5ccccc5F)cc4C)c3N)[nH]c2cc1NS(=O)(=O)c1cccc(F)n1"
tested_system = "human Yes1 enzyme (Homo sapiens)"
class_name = "T"

[[record]]
given_smiles = "Cc1cc2cc(C(=O)c3cnn(-c4cnc(Oc5ccccc5F)cc4C)c3N)[nH]c2cc1N1CCOCC1"
tested_system = "human Yes1 enzyme (Homo sapiens)"
class_name = "T"

[[record]]
given_smiles = "Cc1cc(Oc2c(F)cccc2F)ncc1-n1ncc(C(=O)c2cc3cc(OC(F)F)c(C4CCNCC4)cc3[nH]2)c1N"
tested_system = "human Yes1 enzyme (Homo sapiens)"
class_name = "F"

[[record]]
given_smiles = "Cc1cc(Oc2ccccc2F)ccc1-n1ncc(C(=O)c2cc3cc(OCC(F)F)c(C4CCN(C(=O)CN)CC4)cc3[nH]2)c1N"
tested_system = "human Yes1 enzyme (Homo sapiens)"
class_name = "T"

[[record]]
given_smiles = "Cc1cc(Oc2ccccc2F)ccc1-n1ncc(C(=O)c2cc3cc(OC(F)F)c(NC4CN(S(C)(=O)=O)C4)cc3[nH]2)c1N"
tested_system = "human Yes1 enzyme (Homo sapiens)"
class_name = "T"

[[record]]
given_smiles = "Cc1cc(Oc2ccccc2F)cc(F)c1-n1ncc(C(=O)c2cc3cc(OCC(F)F)c(N4CCC(N5CCOCC5)CC4)cc3[nH]2)c1N"
tested_system = "human Yes1 enzyme (Homo sapiens)"
class_name = "T"

[[record]]
given_smiles = "Cc1cc(Oc2ccccc2F)ncc1-n1ncc(C(=O)c2cc3cc(N4CCOCC4)c(NS(=O)(=O)N4CCOCC4)cc3[nH]2)c1N"
tested_system = "human Yes1 enzyme (Homo sapiens)"
class_name = "T"

[[record]]
given_smiles = "Cc1cc2cc(C(=O)c3cnn(-c4cnc(Oc5ccccc5F)cc4C)c3N)[nH]c2cc1NS(=O)(=O)c1cncc(C(F)(F)F)c1"
tested_system = "human Yes1 enzyme (Homo sapiens)"
class_name = "F"

[[record]]
given_smiles = "Cc1cc(Oc2cccc(F)c2F)cc(F)c1-n1ncc(C(=O)c2cc3cc(F)c(NS(=O)(=O)C4CC4)cc3[nH]2)c1N"
tested_system = "human Yes1 enzyme (Homo sapiens)"
class_name = "F"

[[record]]
given_smiles = "Cc1cc(Oc2ccccc2F)ccc1-n1ncc(C(=O)c2cc3cc(OCC(F)F)c(NS(=O)(=O)c4cccc(Cl)c4)cc3[nH]2)c1N"
tested_system = "human Yes1 enzyme (Homo sapiens)"
class_name = "T"

[[record]]
given_smiles = "Cc1cc2cc(C(=O)c3cnn(-c4ccc(Oc5ccccc5F)cc4C)c3N)[nH]c2cc1N1C(=O)CNC1=O"
tested_system = "human Yes1 enzyme (Homo sapiens)"
class_name = "T"

[[record]]
given_smiles = "Cc1cc(Oc2ccccc2F)ncc1-n1ncc(C(=O)c2cc3cc(OCC(F)F)c(NS(C)(=O)=O)cc3[nH]2)c1N"
tested_system = "human Yes1 enzyme (Homo sapiens)"
class_name = "T"

